# studyTarget: WEE1 (human)
# assayMethodText: KINOMEscan competition binding
# recordedConditions: compound 10.0 µM
readoutName: kinase still bound, per cent of control (%)

# compound, unitsSymbol, endpointResult
rows = [
    ("CCc1nc(-c2cccc(C)c2)c(-c2ccnc(NC(=O)c3ccccc3)c2)s1", "%", 100),
    ("CCN(CCO)CCCOc1ccc2c(Nc3cc(CC(=O)Nc4cccc(F)c4)[nH]n3)ncnc2c1", "%", 100),
    ("Cc1cn(-c2cc(C(=O)Nc3ccc(C)c(NC(=O)c4ccno4)c3)cc(C(F)(F)F)c2)cn1", "%", 100),
    ("COc1cc2c(Nc3ccc(NC(=O)c4ccccc4)cc3)ncnc2cc1OCCCN1CCOCC1", "%", 100),
    ("N#C/C(=C1/Nc2ccccc2S1)c1ccnc(NCCc2cccnc2)n1", "%", 100),
    ("COc1ccc(N(C(=O)Oc2cc(C(=O)Nc3cccc(C(F)(F)F)c3)ccc2C)c2ccnc(Nc3ccc(N4CCN(C)CC4)cc3)n2)c(OC)c1", "%", 100),
    ("COc1cc2ncnc(Nc3cccc(Cl)c3)c2cc1OC", "%", 93),
    ("COc1cc(N2CCC(C(N)=O)CC2)ccc1Nc1nc(N)c(Cl)c(Nc2ccccc2S(=O)(=O)C(C)C)n1", "%", 100),
    ("CC1=C(C(=O)Nc2cc3cn[nH]c3cc2F)C(c2ccc(C(F)(F)F)cc2)CC(=O)N1 (centres undefined)", "%", 94),
]

---

# studyTarget: IGF1R (human)
# assayMethodText: KINOMEscan competition binding
# recordedConditions: compound 10.0 µM
Below, each entry is listed alongside its reported kinase still bound, per cent of control.
readoutName: kinase still bound, per cent of control (%)

# molecule, endpointResult
measured = [
    ("COc1cc(N2CCC(C(N)=O)CC2)ccc1Nc1nc(N)c(Cl)c(Nc2ccccc2S(=O)(=O)C(C)C)n1", 0.65),
    ("CCN1CCN(Cc2ccc(NC(=O)c3ccc(C)c(/C=C/c4cnc5[nH]ccc5c4OC)c3)cc2C(F)(F)F)CC1", 100),
    ("COc1cc(C)c(Sc2cnc(NC(=O)c3ccc(CNC(C)C(C)C)cc3)s2)cc1C(=O)N1CCN(C(C)=O)CC1 (stereo not drawn)", 4.1),
    ("CCN(CCO)CCCOc1ccc2c(Nc3cc(CC(=O)Nc4cccc(F)c4)[nH]n3)ncnc2c1", 100),
    ("COc1cc2ncnc(Nc3cccc(Cl)c3)c2cc1OC", 100),
    ("CCCS(=O)(=O)Nc1ccc(F)c(C(=O)c2c[nH]c3ncc(Cl)cc23)c1F", 91),
    ("C=CC(=O)Nc1ccc(C(=O)c2sc(Nc3ccc(N4CCN(C)CC4)cc3OC)nc2N)cc1", 86),
    ("N#C/C(=C1/Nc2ccccc2S1)c1ccnc(NCCc2cccnc2)n1", 100),
    ("CNC(=O)Nc1ccc(-c2nc(N3CC4CCC(C3)O4)c3cnn(C4CCC5(CC4)OCCO5)c3n2)cc1", 93),
    ("Cc1cn(-c2cc(C(=O)Nc3ccc(C)c(NC(=O)c4ccno4)c3)cc(C(F)(F)F)c2)cn1", 100),
    ("CCc1nc(-c2cccc(C)c2)c(-c2ccnc(NC(=O)c3ccccc3)c2)s1", 100),
    ("N#Cc1cc(-c2ccnc(Nc3ccc(-n4cnc(-c5cccnc5)n4)cc3)n2)cc(N2CCOCC2)c1", 51),
    ("CC(=O)c1c(C)c2cnc(Nc3ccc(N4CCNCC4)cn3)nc2n(C2CCCC2)c1=O", 81),
    ("CC1=C(C(=O)Nc2cc3cn[nH]c3cc2F)C(c2ccc(C(F)(F)F)cc2)CC(=O)N1 (stereo not drawn)", 98),
    ("CCOc1cc(N2CCC(O)CC2)ccc1Nc1ncc2c(n1)N(C)c1ccccc1C(=O)N2C", 100),
    ("O=c1[nH]c2ccccc2n1C1CCN(Cc2ccc(-c3nc4cc5[nH]cnc5cc4nc3-c3ccccc3)cc2)CC1", 100),
    ("COc1ccc(N(C(=O)Oc2cc(C(=O)Nc3cccc(C(F)(F)F)c3)ccc2C)c2ccnc(Nc3ccc(N4CCN(C)CC4)cc3)n2)c(OC)c1", 100),
    ("COc1cc2c(Nc3ccc(NC(=O)c4ccccc4)cc3)ncnc2cc1OCCCN1CCOCC1", 100),
]

---

# studyTarget: ACVR1 (human) (UniProt Q04771)
# Sequence (Q04771 whole entry, looked up): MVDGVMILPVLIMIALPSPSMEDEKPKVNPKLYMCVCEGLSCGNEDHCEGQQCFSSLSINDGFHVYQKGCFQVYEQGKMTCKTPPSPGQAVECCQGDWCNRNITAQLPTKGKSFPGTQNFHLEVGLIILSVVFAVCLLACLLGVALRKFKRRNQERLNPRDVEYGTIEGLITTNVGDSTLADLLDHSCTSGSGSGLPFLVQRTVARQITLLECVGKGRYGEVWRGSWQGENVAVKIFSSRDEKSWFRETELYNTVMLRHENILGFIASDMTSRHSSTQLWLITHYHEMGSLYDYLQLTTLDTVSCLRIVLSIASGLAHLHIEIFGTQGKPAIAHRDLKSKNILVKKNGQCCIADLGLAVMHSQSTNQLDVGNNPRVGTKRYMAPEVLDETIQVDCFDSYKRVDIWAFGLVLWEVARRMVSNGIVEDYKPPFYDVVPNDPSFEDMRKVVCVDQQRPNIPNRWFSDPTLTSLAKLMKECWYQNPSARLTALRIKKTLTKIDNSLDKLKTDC
# assayMethodText: KINOMEscan competition binding
# recordedConditions: compound 10.0 µM
Recorded measurements of kinase still bound, per cent of control, one per entry
readoutName: kinase still bound, per cent of control (%)

# compound, readoutName, endpointResult
rows = [
    ("COc1cc(N2CCC(C(N)=O)CC2)ccc1Nc1nc(N)c(Cl)c(Nc2ccccc2S(=O)(=O)C(C)C)n1", "kinase still bound, per cent of control", 100),
    ("COc1cc(C)c(Sc2cnc(NC(=O)c3ccc(CNC(C)C(C)C)cc3)s2)cc1C(=O)N1CCN(C(C)=O)CC1 (stereo not drawn)", "kinase still bound, per cent of control", 100),
    ("CCN1CCN(Cc2ccc(NC(=O)c3ccc(C)c(/C=C/c4cnc5[nH]ccc5c4OC)c3)cc2C(F)(F)F)CC1", "kinase still bound, per cent of control", 100),
    ("CCN(CCO)CCCOc1ccc2c(Nc3cc(CC(=O)Nc4cccc(F)c4)[nH]n3)ncnc2c1", "kinase still bound, per cent of control", 81),
    ("CNC(=O)Nc1ccc(-c2nc(N3CC4CCC(C3)O4)c3cnn(C4CCC5(CC4)OCCO5)c3n2)cc1", "kinase still bound, per cent of control", 90),
    ("CCCS(=O)(=O)Nc1ccc(F)c(C(=O)c2c[nH]c3ncc(Cl)cc23)c1F", "kinase still bound, per cent of control", 100),
    ("N#Cc1cc(-c2ccnc(Nc3ccc(-n4cnc(-c5cccnc5)n4)cc3)n2)cc(N2CCOCC2)c1", "kinase still bound, per cent of control", 23),
    ("CCOc1cc(N2CCC(O)CC2)ccc1Nc1ncc2c(n1)N(C)c1ccccc1C(=O)N2C", "kinase still bound, per cent of control", 100),
    ("O=c1[nH]c2ccccc2n1C1CCN(Cc2ccc(-c3nc4cc5[nH]cnc5cc4nc3-c3ccccc3)cc2)CC1", "kinase still bound, per cent of control", 92),
    ("COc1cc2c(Nc3ccc(NC(=O)c4ccccc4)cc3)ncnc2cc1OCCCN1CCOCC1", "kinase still bound, per cent of control", 100),
    ("COc1cc2ncnc(Nc3cccc(Cl)c3)c2cc1OC", "kinase still bound, per cent of control", 74),
    ("CC1=C(C(=O)Nc2cc3cn[nH]c3cc2F)C(c2ccc(C(F)(F)F)cc2)CC(=O)N1 (stereo not drawn)", "kinase still bound, per cent of control", 100),
    ("COc1ccc(N(C(=O)Oc2cc(C(=O)Nc3cccc(C(F)(F)F)c3)ccc2C)c2ccnc(Nc3ccc(N4CCN(C)CC4)cc3)n2)c(OC)c1", "kinase still bound, per cent of control", 100),
    ("CC(=O)c1c(C)c2cnc(Nc3ccc(N4CCNCC4)cn3)nc2n(C2CCCC2)c1=O", "kinase still bound, per cent of control", 80),
    ("C=CC(=O)Nc1ccc(C(=O)c2sc(Nc3ccc(N4CCN(C)CC4)cc3OC)nc2N)cc1", "kinase still bound, per cent of control", 100),
    ("N#C/C(=C1/Nc2ccccc2S1)c1ccnc(NCCc2cccnc2)n1", "kinase still bound, per cent of control", 86),
    ("Cc1cn(-c2cc(C(=O)Nc3ccc(C)c(NC(=O)c4ccno4)c3)cc(C(F)(F)F)c2)cn1", "kinase still bound, per cent of control", 100),
    ("CCc1nc(-c2cccc(C)c2)c(-c2ccnc(NC(=O)c3ccccc3)c2)s1", "kinase still bound, per cent of control", 9.6),
]

---

Reported kinase still bound, per cent of control by item:
# studyTarget: GRK1 (human) (UniProt Q15835)
# Sequence (Q15835 whole entry, looked up): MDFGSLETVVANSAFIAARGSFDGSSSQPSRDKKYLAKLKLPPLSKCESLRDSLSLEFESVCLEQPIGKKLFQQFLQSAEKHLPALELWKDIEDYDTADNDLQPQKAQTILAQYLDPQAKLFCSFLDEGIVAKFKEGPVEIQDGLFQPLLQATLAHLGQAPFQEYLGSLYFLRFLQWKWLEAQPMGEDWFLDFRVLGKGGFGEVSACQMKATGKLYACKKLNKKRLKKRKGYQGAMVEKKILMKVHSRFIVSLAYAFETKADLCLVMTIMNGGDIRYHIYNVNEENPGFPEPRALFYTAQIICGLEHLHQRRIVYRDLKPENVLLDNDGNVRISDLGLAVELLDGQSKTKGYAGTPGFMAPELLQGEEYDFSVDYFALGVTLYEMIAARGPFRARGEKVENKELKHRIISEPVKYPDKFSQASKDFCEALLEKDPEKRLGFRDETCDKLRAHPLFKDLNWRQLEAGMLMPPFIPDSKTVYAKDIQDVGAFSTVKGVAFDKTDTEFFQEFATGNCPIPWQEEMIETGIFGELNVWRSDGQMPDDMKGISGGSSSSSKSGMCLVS
# assayMethodText: KINOMEscan competition binding
# recordedConditions: compound 10.0 µM

# molecule, studyTarget, kinase still bound, per cent of control, %
measured = [
    ("N#C/C(=C1/Nc2ccccc2S1)c1ccnc(NCCc2cccnc2)n1", "GRK1 (human) (UniProt Q15835)", 100),
    ("CCOc1cc(N2CCC(O)CC2)ccc1Nc1ncc2c(n1)N(C)c1ccccc1C(=O)N2C", "GRK1 (human) (UniProt Q15835)", 100),
    ("CCN(CCO)CCCOc1ccc2c(Nc3cc(CC(=O)Nc4cccc(F)c4)[nH]n3)ncnc2c1", "GRK1 (human) (UniProt Q15835)", 100),
    ("N#Cc1cc(-c2ccnc(Nc3ccc(-n4cnc(-c5cccnc5)n4)cc3)n2)cc(N2CCOCC2)c1", "GRK1 (human) (UniProt Q15835)", 100),
    ("C=CC(=O)Nc1ccc(C(=O)c2sc(Nc3ccc(N4CCN(C)CC4)cc3OC)nc2N)cc1", "GRK1 (human) (UniProt Q15835)", 100),
    ("CC(=O)c1c(C)c2cnc(Nc3ccc(N4CCNCC4)cn3)nc2n(C2CCCC2)c1=O", "GRK1 (human) (UniProt Q15835)", 89),
    ("Cc1cn(-c2cc(C(=O)Nc3ccc(C)c(NC(=O)c4ccno4)c3)cc(C(F)(F)F)c2)cn1", "GRK1 (human) (UniProt Q15835)", 100),
    ("COc1cc2c(Nc3ccc(NC(=O)c4ccccc4)cc3)ncnc2cc1OCCCN1CCOCC1", "GRK1 (human) (UniProt Q15835)", 100),
    ("O=c1[nH]c2ccccc2n1C1CCN(Cc2ccc(-c3nc4cc5[nH]cnc5cc4nc3-c3ccccc3)cc2)CC1", "GRK1 (human) (UniProt Q15835)", 100),
    ("CC1=C(C(=O)Nc2cc3cn[nH]c3cc2F)C(c2ccc(C(F)(F)F)cc2)CC(=O)N1 (stereo not given)", "GRK1 (human) (UniProt Q15835)", 78),
    ("CCCS(=O)(=O)Nc1ccc(F)c(C(=O)c2c[nH]c3ncc(Cl)cc23)c1F", "GRK1 (human) (UniProt Q15835)", 100),
    ("CNC(=O)Nc1ccc(-c2nc(N3CC4CCC(C3)O4)c3cnn(C4CCC5(CC4)OCCO5)c3n2)cc1", "GRK1 (human) (UniProt Q15835)", 100),
    ("COc1cc2ncnc(Nc3cccc(Cl)c3)c2cc1OC", "GRK1 (human) (UniProt Q15835)", 100),
    ("CCN1CCN(Cc2ccc(NC(=O)c3ccc(C)c(/C=C/c4cnc5[nH]ccc5c4OC)c3)cc2C(F)(F)F)CC1", "GRK1 (human) (UniProt Q15835)", 96),
    ("CCc1nc(-c2cccc(C)c2)c(-c2ccnc(NC(=O)c3ccccc3)c2)s1", "GRK1 (human) (UniProt Q15835)", 100),
]
